- assayedTarget: UGT1A3 (Homo sapiens)
- Sequence (P35503 29-534): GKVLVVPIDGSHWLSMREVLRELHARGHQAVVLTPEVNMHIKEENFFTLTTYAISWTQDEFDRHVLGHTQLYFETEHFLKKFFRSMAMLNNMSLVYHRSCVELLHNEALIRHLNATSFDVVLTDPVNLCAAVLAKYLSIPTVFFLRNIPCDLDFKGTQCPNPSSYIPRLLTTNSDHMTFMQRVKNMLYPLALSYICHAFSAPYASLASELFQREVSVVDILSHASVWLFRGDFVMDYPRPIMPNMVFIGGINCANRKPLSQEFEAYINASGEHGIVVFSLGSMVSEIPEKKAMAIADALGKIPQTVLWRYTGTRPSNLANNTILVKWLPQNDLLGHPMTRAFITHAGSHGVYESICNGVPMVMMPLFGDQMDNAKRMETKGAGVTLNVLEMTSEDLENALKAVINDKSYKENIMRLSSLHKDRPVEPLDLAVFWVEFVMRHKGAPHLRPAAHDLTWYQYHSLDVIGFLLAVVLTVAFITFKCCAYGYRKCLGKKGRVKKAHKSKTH
- assayNotes: Glucuronidation by recombinant human UGT1A3
- testContext: UGT1A3, substrate 2.5 μM
valueKind: Degree of regiospecificity (major glucuronide in bracket)

[
  {
    "molecule": "O=c1c(O)c(-c2ccccc2)oc2cc(O)cc(O)c12 [5,7DHFnol, 3,5,7-trihydroxyflavone]",
    "reportedValue": "Dominant (7-O)"
  },
  {
    "molecule": "O=c1cc(-c2ccc(O)cc2)oc2cc(O)ccc12 [7,4'DHF, 7,4’-dihydroxyflavone]",
    "reportedValue": "Dominant (7-O)"
  },
  {
    "molecule": "O=c1c(O)c(-c2ccc(O)cc2)oc2cc(O)ccc12 [7,4'DHFnol, 3,7,4’-trihydroxyflavone]",
    "reportedValue": "Dominant (7-O)"
  }
]
